For each entry below, report its activation value.
tested_target: Troponin I, cardiac muscle (Homo sapiens) + Troponin T, cardiac muscle (Homo sapiens) + Troponin C, slow skeletal and cardiac muscles (Homo sapiens) (UniProt P19429+P45379+P63316)
experiment_description: cardiac RTF calcium sensitivity activators, confirmation, biochemical, IANBD-TnC fluorescence, triplicate (AID 504383);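 further: 0% = DMSO at 0.472 mM calcium and 100% = DMSO at 2.9 mM calcium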
particulars: IANBD-labeled cardiac RTF, Ca2+ sensitivity fluorescence; at 7.2 µM; stronger effect = higher value; scaled from EC20 to saturating calcium; tested at EC20 calcium, 0.472 mM
Out of some 2,500 compounds screened, about 1,200 (48%) were called active. So high a share suggests a set chosen from earlier hits. The list shows a part of the results.
Kindly answer with a numeric value in %, unit omitted.

Exercise: Which activation value belongs to O=C(C1=NN(c2ccccc2)C2C(=O)N(c3cccc(Cl)c3)C(=O)C12)c1ccccc1 (stereo not drawn) ?
Key: 35.7

Exercise: Return reported activation; argument: `Cc1cc[n+](-c2[nH]c(=O)sc2/C=N/N=C(\[O-])c2ccccc2)cc1C`
Key: 22.1

Exercise: Query: activation; subject: `COC(=O)[C@@]1(Cc2ccc(OC)cc2)[C@@H]2C(=CC(=O)[C@H]2CC(=O)C(=O)N2CCCC2)CN1C(=O)c1ccccc1`
Key: 36

Exercise: What does the record list as activation for `CN(C)c1ccc(/C=C2\C(=N)N3N=C(CC(=O)N4CCCCC4)SC3=NC2=O)cc1` ?
Key: 41.6

Exercise: For the molecule `N#C/C(=C\c1ccc(N2CCCCC2)o1)C(N)=O` , what activation is on record?
Key: 11.6

Exercise: Report activation for COc1ccccc1N1C(=O)C2C(C(=O)c3ccccc3)=NN(c3ccccc3)C2C1=O (stereo not drawn) please.
Key: 11.7

Exercise: Quick one: activation for `OCCNCc1cccc(OCc2ccc(Cl)cc2)c1` ?
Key: 173

Exercise: For the molecule `O=C(c1ccc(Cl)cc1)n1cnc2ccccc21` , what activation is on record?
Key: 7.26

Exercise: What measured activation goes with `Cc1ccc(S(=O)(=O)c2c(N)n(Cc3ccco3)c3nc4ccccc4nc23)cc1` ?
Key: 8.53

Exercise: # activation lookup, item `CCN(CC)c1ccc(/C=C2\C(=N)N3N=C(CC(=O)N4CCOCC4)SC3=NC2=O)cc1`
Key: 16.5

Exercise: Please give the measured activation for this molecule: `CC1(C)NC(=O)N(CCCCOc2ccc(Cl)cc2)C1=O`
Key: 0.92

Exercise: Return reported activation; argument: `CC(C)/C=C1\CC/C(=C\c2ccc(N(C)C)cc2)C1=O`
Key: 5.2

Exercise: Suppose we examine the molecule `O=C(O)c1cccc2c1C(=O)c1ccc(N3CCCC3)cc1S2(=O)=O` ; what activation value has been reported?
Key: 6.28

Exercise: Quick check: activation of `CCOc1cc(C#N)ccc1OCC(=O)N1CCc2ccccc2C1` ?
Key: 12.3

Exercise: What value of activation has been reported for the following molecule? CC(C(=O)N1CCc2ccccc2C1)N1C(=O)c2ccccc2C1=O (stereo not drawn)
Key: 2.65

Exercise: Record request: activation value, item `Nc1c(S(=O)(=O)c2ccccc2)c2nc3ccccc3nc2n1/N=C/c1ccco1`
Key: 4.69

Exercise: Given the molecule `CCOC(=O)CN1C(=O)N[C@@H](c2cccc(C(F)(F)F)c2)C(C(=O)OC)=C1C` , what is its reported activation?
Key: 1.28

Exercise: Bench note: what activation did CC1CC(C)CN(C(=O)Cn2c(-c3nonc3N)nc3ccccc32)C1 (stereo not drawn) show?
Key: 4.8

Exercise: For the molecule shown here, `COc1cccc(/C=C/C(=C2\C(=O)N(c3ccccc3)N=C2C)c2ccc(Br)cc2)c1OC` , give the reported activation.
Key: 4.48

Exercise: // activation lookup, key: `CC(C)(C)c1cc[n+](-c2[nH]c(=O)sc2/C=N/NC([S-])=Nc2ccccc2)cc1`
Key: 5.34

Exercise: Data request, read-out activation, for `Nc1ccc2nc(-c3ccccc3)cnc2c1`
Key: 83.1

Exercise: // query activation value for entry `COc1ccc(N=Cc2sc(O)c3ccccc23)cc1`
Key: 152

Exercise: Sample `COc1ccc(CNCc2cccc(Cl)c2)cc1` — what was its activation?
Key: 4.73

Exercise: Value lookup for activation; key = `CC(=NNC(=O)c1ccncc1)c1ccc2ccccc2c1O`
Key: 6.88

Exercise: Which activation value belongs to Cc1ccccc1C1CC(=O)Oc2cc(O)ccc21 (stereo not drawn) ?
Key: -1.84

Exercise: Which activation is reported for this molecule? `O=C(c1ccccc1Nc1ccc(SC(F)F)cc1)N1CCCCC1`
Key: 5.45

Exercise: Entry under review: `CN(C)c1ccc(/C=C2\SC(N3CCCCC3)=NC2=O)cc1` . Reported activation?
Key: 1160

Exercise: Look up activation for this molecule: `COCCN1C(=O)N[C@@H](c2cccc(C(F)(F)F)c2)C(C(=O)OC)=C1C`
Key: 42.1

Exercise: State the recorded activation for this entry: `COc1ccc(C(=O)N/N=C/c2sc3ccccc3c2O)cc1`
Key: 14.3

Exercise: For the molecule `COC(=O)C/C(O)=C(/N=Nc1cccc(C(F)(F)F)c1)C(=O)OC` , what activation is on record?
Key: 9.06

Exercise: Look up activation for this molecule: `CCN(c1ccc(N=Cc2c(O)n(Cc3ccc(OC)cc3)c(=O)c3ccccc23)cc1)C(C)C`
Key: 9.81

Exercise: Report activation for CCOC(=O)C1CCCN(C2=NC(=O)/C(=C/c3ccc(O)c(OC)c3)S2)C1 (stereo not drawn) please.
Key: -0.88

Exercise: Reported activation for `COc1ccc(N(C(=O)c2ccc(C)cc2)S(=O)(=O)c2cccs2)cc1` : what is it?
Key: 175

Exercise: Quick one: activation for `O=C(c1ccco1)N1CCN(c2ncnc3c(-c4ccc(Cl)cc4)nsc23)CC1` ?
Key: 112

Exercise: # lookup: activation of `COc1ccc(C(=O)Cn2cnc3ccccc3c2=O)cc1OC`
Key: 6.44

Exercise: For `O=C(Cn1cnc2ccccc2c1=O)c1ccc(Br)cc1` , what is its reported activation?
Key: 424

Exercise: # input molecule: `COc1ccc(N=Cc2c(O)c3ccccc3n2C(C)=O)cc1` ; wanted: its activation
Key: 13.7

Exercise: Fill in: activation of `Cc1cc[n+](-c2[nH]c(=O)sc2/C=N/NC([S-])=Nc2ccccc2)cc1` is ___
Key: 18.3

Exercise: Recorded activation of O=C(C1=NN(c2ccccc2)C2C(=O)N(c3ccccc3Cl)C(=O)C12)c1ccccc1 (stereo not drawn) , please.
Key: 13.6

Exercise: Consider the molecule Cc1ccc(CC2C(=O)N(c3ccc(C)cc3)C(=O)C2C)cc1 (stereo not drawn) and give its measured activation.
Key: 7.76

Exercise: Look up activation: `COCCNC(=O)/C(C#N)=C/c1ccc(N2CCOCC2)o1`
Key: 9.29

Exercise: Bench note: what activation did `Cc1ccc(/C=C2/NC(=O)N(Cc3ccccc3)C2=O)s1` show?
Key: 2.28

Exercise: Recorded activation of `Cc1cc(C)c[n+](-c2[nH]c(=O)sc2/C=N/NC([S-])=Nc2ccccc2)c1` , please.
Key: -0.42
